Target: dipeptidyl peptidase IV (UniProt P27487)
Sequence (P27487 41-765): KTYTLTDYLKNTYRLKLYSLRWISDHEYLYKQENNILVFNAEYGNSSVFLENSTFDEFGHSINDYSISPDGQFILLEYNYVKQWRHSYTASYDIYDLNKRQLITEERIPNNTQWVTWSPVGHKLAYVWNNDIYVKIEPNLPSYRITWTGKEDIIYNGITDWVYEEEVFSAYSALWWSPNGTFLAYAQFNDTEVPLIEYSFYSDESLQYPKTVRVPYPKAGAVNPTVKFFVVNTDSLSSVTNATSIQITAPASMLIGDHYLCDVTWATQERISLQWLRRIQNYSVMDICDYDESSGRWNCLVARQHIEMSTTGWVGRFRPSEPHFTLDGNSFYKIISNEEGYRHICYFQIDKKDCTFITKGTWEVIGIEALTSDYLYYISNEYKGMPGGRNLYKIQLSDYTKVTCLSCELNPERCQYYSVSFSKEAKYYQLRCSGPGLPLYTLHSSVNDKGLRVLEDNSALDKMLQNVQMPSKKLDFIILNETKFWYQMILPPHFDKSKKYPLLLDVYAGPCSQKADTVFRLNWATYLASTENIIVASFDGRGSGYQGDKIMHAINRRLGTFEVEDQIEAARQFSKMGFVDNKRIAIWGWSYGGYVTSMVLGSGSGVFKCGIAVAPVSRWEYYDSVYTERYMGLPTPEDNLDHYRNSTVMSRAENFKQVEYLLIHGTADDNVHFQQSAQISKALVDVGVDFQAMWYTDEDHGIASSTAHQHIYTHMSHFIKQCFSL
MEASUREMENT LABEL: IC50 of inhibition of DPP-IV activity in vitro (mM)
Give the number; mM is assumed, so skip it.

FNPRG
40.5
YQLM
0.65
LNAP
0.59

Please find the next binder below.
Return reported IC50 of inhibition of DPP-IV activity in vitro; argument: `VFTPQ`
18.5
